These data points were gathered from patent US7320979B2.

- measurement-target: human dopamine D3 receptors (Homo sapiens, UniProt P35462)
- Construct: expressed in transfected cells; host or cells: HEK-293
- Sequence (P35462 whole entry): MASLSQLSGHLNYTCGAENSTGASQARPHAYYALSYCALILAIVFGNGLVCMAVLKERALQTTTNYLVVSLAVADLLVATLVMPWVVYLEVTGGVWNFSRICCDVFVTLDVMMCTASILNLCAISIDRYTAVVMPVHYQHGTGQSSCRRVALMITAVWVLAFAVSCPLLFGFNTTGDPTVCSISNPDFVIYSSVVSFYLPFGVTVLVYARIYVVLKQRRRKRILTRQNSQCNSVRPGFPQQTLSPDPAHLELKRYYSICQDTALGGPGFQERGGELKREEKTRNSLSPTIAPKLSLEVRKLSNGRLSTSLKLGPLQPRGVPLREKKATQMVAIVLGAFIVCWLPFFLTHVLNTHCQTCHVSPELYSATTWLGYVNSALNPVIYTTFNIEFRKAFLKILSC
- run-description: Dopamine D3 receptor binding, displacement of [125I]-iodosulpride
- conditions: membranes of HEK-293 cells stably expressing human D3 receptors; 0.1 nM [125I]-iodosulpride; 25° C., 60 minutes
readout-label: Ki (nM)

>  <compound>
CCCN1CCN(c2ccc(OS(=O)(=O)c3ccc(C(C)C)cc3)cn2)CC1.Cl [Example 60, hydrochloride]

>  <uom>
nM

>  <numeric-readout>
17.4

$$$$
>  <compound>
C=CCN1CCN(c2ccc(NS(=O)(=O)c3ccc(CC)cc3)cn2)CC1.Cl [Example 5, hydrochloride]

>  <uom>
nM

>  <numeric-readout>
11.4

$$$$
>  <compound>
CCCN1CCN(c2ccc(NS(=O)(=O)c3ccc(C(C)C)cc3)cn2)C[C@@H]1C [Example 14a]

>  <uom>
nM

>  <numeric-readout>
1.5

$$$$
>  <compound>
C=CCN1CCN(c2ccc(NS(=O)(=O)c3ccc(C(C)C)cc3)c(OC)n2)C[C@@H]1C.Cl [Example 48, hydrochloride]

>  <uom>
nM

>  <numeric-readout>
0.8

$$$$
>  <compound>
C=CCN1CCN(c2ccc(NS(=O)(=O)c3ccc(C(C)C)cc3)cn2)C[C@@H]1C [Example 13a]

>  <uom>
nM

>  <numeric-readout>
2.7

$$$$
>  <compound>
C=Cc1ccc(S(=O)(=O)Nc2ccc(N3CCN(CCC)[C@@H](C)C3)nc2)cc1.Cl [Example 47, hydrochloride]

>  <uom>
nM

>  <numeric-readout>
6.1

$$$$
>  <compound>
CCN1CCN(c2ncc(NS(=O)(=O)c3ccc(C(C)C)cc3)cn2)CC1.Cl [Example 53, hydrochloride]

>  <uom>
nM

>  <numeric-readout>
8.8

$$$$
>  <compound>
CCCN1CCN(c2ccc(NS(=O)(=O)c3ccc(Cl)cc3)cn2)CC1

>  <uom>
nM

>  <numeric-readout>
25.3

$$$$
>  <compound>
C=CCN1CCN(c2ccc(NS(=O)(=O)c3ccc(C(C)C)cc3)cn2)CC1C.Cl (racemic) [Example 13, hydrochloride]

>  <uom>
nM

>  <numeric-readout>
3.6

$$$$
>  <compound>
CCN1CCN(c2ccc(NS(=O)(=O)c3ccc(C(C)C)cc3)cn2)CC1.Cl [Example 11, hydrochloride]

>  <uom>
nM

>  <numeric-readout>
6.2

$$$$
>  <compound>
CCCN1CCN(c2ccc(NS(=O)(=O)c3ccc(C(C)C)cc3)c(OC)n2)C[C@@H]1C.Cl [Example 49, hydrochloride]

>  <uom>
nM

>  <numeric-readout>
0.4

$$$$
>  <compound>
C=CCN1CCN(c2ccc(NS(=O)(=O)c3ccc(CCCC)cc3)cn2)CC1

>  <uom>
nM

>  <numeric-readout>
5.9

$$$$
>  <compound>
C=CCN1CCN(c2ccc(NS(=O)(=O)c3ccc(C(C)(C)C)cc3)c(C)n2)CC1

>  <uom>
nM

>  <numeric-readout>
1.4

$$$$
>  <compound>
CCCN1CCN(c2cc(C)c(NS(=O)(=O)c3ccc(C(C)C)cc3)cn2)CC1.Cl [Example 38, hydrochloride]

>  <uom>
nM

>  <numeric-readout>
17.2

$$$$
>  <compound>
C=CCN1C(C)CN(c2ccc(NS(=O)(=O)c3ccc(C(C)C)cc3)cn2)CC1C.Cl (stereo not drawn) [Example 24, hydrochloride]

>  <uom>
nM

>  <numeric-readout>
25

$$$$
>  <compound>
C=CCN1CCN(c2cc(C)c(NS(=O)(=O)c3ccc(C(C)C)cc3)cn2)CC1.Cl [Example 37, hydrochloride]

>  <uom>
nM

>  <numeric-readout>
2.7

$$$$
>  <compound>
CCCN1C(C)CN(c2ncccc2NS(=O)(=O)c2ccc(C(C)C)cc2)CC1C.O=C(O)C(F)(F)F (stereo not drawn) [Example 22, trifluoroacetate]

>  <uom>
nM

>  <numeric-readout>
21.9

$$$$
>  <compound>
C=CCN1CCN(c2ccc(NS(=O)(=O)c3ccc(C(C)(C)CC)cc3)c(C)n2)CC1

>  <uom>
nM

>  <numeric-readout>
1.4

$$$$
